molecular target: human mGluR5a receptors (Homo sapiens (Human)); assay: Inhibition of glutamate-induced elevation of intracellular calcium in L(tk−) cells expressing human mGluR5a receptors; conditions: read-out: mGluR5 IC50
Sequence (P41594 other isoform, or with tags, fused parts or gaps): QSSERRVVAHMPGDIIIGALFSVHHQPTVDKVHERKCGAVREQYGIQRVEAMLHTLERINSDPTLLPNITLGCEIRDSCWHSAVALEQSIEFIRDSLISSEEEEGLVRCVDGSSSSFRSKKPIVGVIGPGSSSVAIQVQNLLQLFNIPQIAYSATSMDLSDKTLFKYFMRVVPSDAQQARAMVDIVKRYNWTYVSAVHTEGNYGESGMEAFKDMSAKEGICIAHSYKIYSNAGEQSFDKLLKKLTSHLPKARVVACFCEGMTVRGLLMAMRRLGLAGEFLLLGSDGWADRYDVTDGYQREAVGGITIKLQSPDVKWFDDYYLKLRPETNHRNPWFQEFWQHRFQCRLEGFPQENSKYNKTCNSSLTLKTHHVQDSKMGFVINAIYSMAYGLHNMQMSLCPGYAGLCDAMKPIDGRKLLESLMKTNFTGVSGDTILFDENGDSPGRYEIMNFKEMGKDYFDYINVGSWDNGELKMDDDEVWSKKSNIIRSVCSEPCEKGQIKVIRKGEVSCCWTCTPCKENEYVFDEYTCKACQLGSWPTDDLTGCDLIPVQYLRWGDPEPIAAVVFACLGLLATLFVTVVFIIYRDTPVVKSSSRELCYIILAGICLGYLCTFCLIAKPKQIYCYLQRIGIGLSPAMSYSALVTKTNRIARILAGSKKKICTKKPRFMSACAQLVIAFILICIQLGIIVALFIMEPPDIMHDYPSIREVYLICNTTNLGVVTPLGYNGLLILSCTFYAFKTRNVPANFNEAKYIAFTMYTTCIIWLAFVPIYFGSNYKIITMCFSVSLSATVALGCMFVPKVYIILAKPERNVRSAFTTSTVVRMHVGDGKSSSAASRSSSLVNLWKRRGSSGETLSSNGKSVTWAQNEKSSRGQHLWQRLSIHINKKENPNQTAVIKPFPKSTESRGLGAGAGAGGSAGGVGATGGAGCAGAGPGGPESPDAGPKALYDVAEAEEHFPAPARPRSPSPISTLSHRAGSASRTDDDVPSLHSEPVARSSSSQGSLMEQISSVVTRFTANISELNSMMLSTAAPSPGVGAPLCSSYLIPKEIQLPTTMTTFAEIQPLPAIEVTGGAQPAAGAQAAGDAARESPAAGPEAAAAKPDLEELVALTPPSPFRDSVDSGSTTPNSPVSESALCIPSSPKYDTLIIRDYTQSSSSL
pIC50: −log10 of the molar value.
property-measured: pIC50

# annotated cases, reported pIC50 shown
[[record]]
compound = "CCc1cn(C2=NCC(=O)N3CCc4c(cccc4C(C)O)C3=C2)cn1 (racemic)"
property_measured = "pIC50"
observed_result = 6.31

[[record]]
compound = "Cc1nc(-c2cccc3c2CCN2C(=O)CN=C(n4cnc(C5CCC5)c4)C=C32)co1 [Example 108b]"
property_measured = "pIC50"
observed_result = 7.64


I = CCOCc1cn(C2=NCC(=O)N3CCc4c(cccc4-c4nc(C)cs4)C3=C2)cn1 [Example 88i]
II = Cn1cc(C2=NCC(=O)N3CCc4c(I)cccc4C3=C2)cn1
Of the pair I and II , name the member with the lesser recorded pIC50. // respond with label for picked entry
I
(I: 6.47, II: 8.00)

---

target: human mGluR1 (Homo sapiens (Human)); test: mGluR1 antagonism: L-glutamate induced intracellular calcium increases, FLIPR, CHO cells stably expressing human mGluR1; settings: inhibition of glutamate-induced elevation of intracellular calcium
Sequence (Q13255 19-1194): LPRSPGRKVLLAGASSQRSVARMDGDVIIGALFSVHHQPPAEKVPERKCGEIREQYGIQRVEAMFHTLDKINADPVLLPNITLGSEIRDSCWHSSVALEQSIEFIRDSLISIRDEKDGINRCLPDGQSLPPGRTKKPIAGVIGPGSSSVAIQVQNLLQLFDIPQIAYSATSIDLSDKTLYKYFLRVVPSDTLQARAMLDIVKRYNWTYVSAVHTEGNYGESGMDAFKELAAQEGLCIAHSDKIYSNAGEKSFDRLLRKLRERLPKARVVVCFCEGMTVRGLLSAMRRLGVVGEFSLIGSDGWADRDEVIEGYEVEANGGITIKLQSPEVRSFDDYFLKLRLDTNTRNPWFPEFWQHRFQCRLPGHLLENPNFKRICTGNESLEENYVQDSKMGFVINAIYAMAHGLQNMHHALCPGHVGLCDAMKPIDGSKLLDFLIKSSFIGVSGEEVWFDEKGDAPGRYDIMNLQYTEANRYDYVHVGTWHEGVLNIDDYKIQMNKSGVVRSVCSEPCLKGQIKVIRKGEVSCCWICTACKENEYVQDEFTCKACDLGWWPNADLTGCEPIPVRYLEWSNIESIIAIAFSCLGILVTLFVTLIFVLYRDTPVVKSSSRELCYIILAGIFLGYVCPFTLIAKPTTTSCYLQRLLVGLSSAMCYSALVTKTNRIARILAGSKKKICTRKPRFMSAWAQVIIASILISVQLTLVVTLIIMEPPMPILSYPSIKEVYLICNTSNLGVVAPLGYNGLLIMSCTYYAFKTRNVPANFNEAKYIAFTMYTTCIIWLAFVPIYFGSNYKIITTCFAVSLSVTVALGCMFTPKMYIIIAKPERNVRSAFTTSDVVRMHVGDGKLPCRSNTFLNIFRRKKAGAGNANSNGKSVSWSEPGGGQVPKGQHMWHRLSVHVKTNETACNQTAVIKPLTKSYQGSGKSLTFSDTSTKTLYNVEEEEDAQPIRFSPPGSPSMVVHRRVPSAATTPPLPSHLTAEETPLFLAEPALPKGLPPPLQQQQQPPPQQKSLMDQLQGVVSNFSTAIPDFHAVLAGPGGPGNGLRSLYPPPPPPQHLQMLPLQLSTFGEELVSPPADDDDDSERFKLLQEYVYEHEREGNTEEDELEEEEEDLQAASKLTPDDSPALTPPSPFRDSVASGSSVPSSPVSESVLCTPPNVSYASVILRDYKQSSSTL
property-measured: pIC50
The read-out pIC50 is expressed as -log10 of concentration in moles per litre.

[[record]]
molecule = "Cc1nc(-c2cccc3c2CCN2C(=O)CN=C(n4cnc(C5CCC5)c4)C=C32)co1 [Example 108b]"
observed_result = 5.72


Could you now consider this next molecule?
Query pIC50 on human mGluR1 (Homo sapiens (Human)) for Cn1cc(C2=NCC(=O)N3CCc4c(I)cccc4C3=C2)cn1
7.46
